Molecular target: CLK3 (Mus musculus, UniProt O35492)
Sequence (O35492 whole entry): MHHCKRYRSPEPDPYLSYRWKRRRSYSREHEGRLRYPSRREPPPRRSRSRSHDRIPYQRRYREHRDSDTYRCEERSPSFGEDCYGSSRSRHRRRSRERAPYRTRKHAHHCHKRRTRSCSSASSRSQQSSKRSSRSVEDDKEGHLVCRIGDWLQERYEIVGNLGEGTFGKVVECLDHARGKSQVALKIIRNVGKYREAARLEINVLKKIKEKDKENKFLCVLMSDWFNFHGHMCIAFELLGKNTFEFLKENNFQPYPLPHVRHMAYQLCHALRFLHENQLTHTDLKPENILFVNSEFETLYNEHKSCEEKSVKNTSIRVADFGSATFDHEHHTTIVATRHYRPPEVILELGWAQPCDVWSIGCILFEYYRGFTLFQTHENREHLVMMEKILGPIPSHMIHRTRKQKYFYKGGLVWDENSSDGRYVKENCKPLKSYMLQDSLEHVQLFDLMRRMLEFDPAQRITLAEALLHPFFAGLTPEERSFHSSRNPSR
Test: Protein kinase assay
Conditions: read-out: IC50 CLK3; 15 μmol/L ATP
observed_property: IC50

Indicate its recorded IC50; the molecule in question is COc1cc(C=C2N=C(N)NC2=O)ccc1F [PAC5] > 10 µM

Indicate its recorded IC50; the molecule in question is NC1=NC(=Cc2cc(Br)cs2)C(=O)N1 [PAC11] > 10 µM

Indicate its recorded IC50; the molecule in question is NC1=NC(=Cc2ccc(-n3ccnc3)cc2)C(=O)N1 [PAC8] > 10 µM

Indicate its recorded IC50; the molecule in question is COc1ccc(C=C2N=C(N)NC2=O)cc1F [PAC4] > 10 µM

Indicate its recorded IC50; the molecule in question is O=C1NC(Nc2ccccc2)=N/C1=C\c1ccc2c(c1)OCO2 [Leucettine L41, reference compound] 2.4 µM

Indicate its recorded IC50; the molecule in question is Cc1ccc(C=C2N=C(N)NC2=O)s1 [PAC10] > 10 µM
